Assay: Aqueous solubility of the compound at pH 6.5
Conditions: aqueous solution
Examples of molecules with documented solubility follow.
Write the answer as a number in µM, unit excluded.

# example entries with known answers
> print(dat)
                                   molecule  outcome.measure  unit.label  recorded.number
1  O=C1CC2(CCN(CCC3CCCCC3)CC2)Oc2c1ccc1ccccc21       solubility          µM               10
2  CCN1CCC2(CC1)CC(O)c1ccc3ccccc3c1O2 (stereo not given)       solubility          µM               20
3  O=C(CN1CCC2(CCc3ccc4ccccc4c3O2)CC1)c1ccc(F)c(F)c1       solubility          µM               20
4  O=C(CN1CCC2(CC1)CC(=O)c1ccc3ccccc3c1O2)c1ccc(F)c(F)c1       solubility          µM               40

Looking up O=C(CN1CCC2(CC1)CC(O)c1ccc3ccccc3c1O2)c1ccc(F)c(F)c1 (stereo not given) , I found its solubility recorded as 20

* * *

Examples of compounds with documented EC50 follow.
Tested on: Plasmodium falciparum
Experiment: Antimalarial activity against chloroquine-resistant Plasmodium falciparum Dd2 assessed as inhibition of parasite growth incubated for 72 hrs by SYBR green I-based DNA quantification assay
Assay type: functional, organism-based
Conditions: Dd2, 72 h
Write the answer as a number in nM, unit excluded.

> print(dat)
                                   compound  outcome.measure  recorded.number
1  OC(CN1CCC2(CCc3ccc4ccccc4c3O2)CC1)c1ccc(F)c(F)c1 (stereo unspecified)             EC50              530
2       O=C1C[C@@]2(CCCNC2)Oc2c1ccc1ccccc21             EC50              630
3  CCN1CCC[C@@]2(CC(O)c3ccc4ccccc4c3O2)C1 (stereo partly specified)             EC50              630

Shift focus to the following entry.
The observed EC50 for O=C1CC2(CCN(CC(O)c3ccc(F)c(F)c3)CC2)Oc2c1ccc1ccccc21 (stereo unspecified) when tested with Plasmodium falciparum stands at 850

* * *

Experiment: Cytotoxicity against human HepG2 cells assessed as reduction in cell viability incubated for 48 hrs by MTS assay
Format: toxicity, cell-based
OUTCOME_MEASURE: EC50 at 48 h (µM)
Write the answer as a number in µM, unit excluded.

# example entries with known answers
> print(dat)
                              smiles.string  recorded.number
1  O[C@H](CN1CCC2(CC1)C[C@@H](O)c1ccc3ccccc3c1O2)c1ccc(F)c(F)c1               17
2  O=C(Cc1ccc(F)c(F)c1)N1CCC2(CCc3ccc4ccccc4c3O2)CC1                5
3  O=C1C[C@@]2(CCCN(CCc3ccc(F)c(F)c3)C2)Oc2c1ccc1ccccc21               14

Shift focus to the following entry.
Looking up CCN1CCC2(CCc3ccc4c(c3O2)CCCC4)CC1 , I found its EC50 at 48 h recorded as 5

* * *

Test: Octanol-water distribution coefficient, logD of the compound at pH 3 by HPLC-based analysis
Type: physicochemical
Examples of compounds with documented logD follow.
No unit in the answer, please; the number alone is enough.

# example entries with known answers
> print(dat)
                                   compound  outcome.measure  recorded.number
1  O=C(CN1CCC2(CC1)CC(=O)c1ccc3ccccc3c1O2)c1ccc(F)c(F)c1             logD             1.52
2  O=C1CC2(CCN(CC(O)c3ccc(F)c(F)c3)CC2)Oc2c1ccc1ccccc21 (stereo not given)             logD             2.79
3  O=C1CC2(CCN(C(=O)Cc3ccc(F)c(F)c3)CC2)Oc2c1ccc1ccccc21             logD                4

Looking up CCN1CCC2(CC1)CC(O)c1ccc3ccccc3c1O2 (stereo not given) , I found its logD recorded as 1.51

* * *

Experiment: Octanol-water distribution coefficient, logD of the compound at pH 7.4 by HPLC-based analysis
Type: physicochemical
Examples of compounds with documented logD follow.
No unit in the answer, please; the number alone is enough.

# example entries with known answers
> print(dat)
                                   compound  recorded.number
1  O=C(Cc1ccc(F)c(F)c1)N1CCC2(CCc3ccc4ccccc4c3O2)CC1             4.04
2  O=C(Cc1ccc(F)c(F)c1)N1CCC2(CC1)CC(O)c1ccc3ccccc3c1O2 (stereo not given)             2.46
3  O=C1CC2(CCN(C(=O)Cc3ccc(F)c(F)c3)CC2)Oc2c1ccc1ccccc21             4.03
4  OC1CC2(CCNCC2)Oc2c1ccc1ccccc21 (stereo not given)             2.46

Shift focus to the following entry.
Looking up OC1CC2(CCN(CCc3ccc(F)c(F)c3)CC2)Oc2c1ccc1ccccc21 (stereo not given) , I found its logD recorded as 3.15

* * *

Test: Cytotoxicity against human HepG2 cells assessed as reduction in cell viability incubated for 48 hrs by MTS assay
Assay type: toxicity, cell-based
Examples of compounds with documented EC50 at 48 h follow.

> print(dat)
                                   compound   result
1  OC(CN1CCC2(CCc3ccc4ccccc4c3O2)CC1)c1ccc(F)c(F)c1 (stereo unspecified)  > 20 µM
2  O=C(CN1CCC2(CC1)CC(O)c1ccc3ccccc3c1O2)c1ccc(F)c(F)c1 (stereo unspecified)    33 µM
3        O=C1C[C@]2(CCCNC2)Oc2c1ccc1ccccc21     4 µM
4  OC1C[C@]2(CCCN(CCc3ccc(F)c(F)c3)C2)Oc2c1ccc1ccccc21 (stereo partly specified)     6 µM
5  O=C1CC2(CCN(CCCc3ccccc3)CC2)Oc2c1ccc1ccccc21  > 20 µM
6  O=C1C[C@]2(CCCN(CCc3ccc(F)c(F)c3)C2)Oc2c1ccc1ccccc21    10 µM

Looking up CCN1CCC[C@]2(CC(O)c3ccc4ccccc4c3O2)C1 (stereo partly specified) , I found its EC50 at 48 h recorded as > 20 µM

Looking up CCN1CCC[C@]2(CC(=O)c3ccc4ccccc4c3O2)C1 , I found its EC50 at 48 h recorded as 5 µM

Looking up O=C1CC2(CCN(CC(O)c3ccc(F)c(F)c3)CC2)Oc2c1ccc1ccccc21 (stereo unspecified) , I found its EC50 at 48 h recorded as > 20 µM

Looking up c1ccc2c3c(ccc2c1)CCC1(CCNCC1)O3 , I found its EC50 at 48 h recorded as > 20 µM

Looking up c1ccc2c3c(ccc2c1)CCC1(CCN(CCC2CCCCC2)CC1)O3 , I found its EC50 at 48 h recorded as 2 µM

* * *

Examples of compounds with documented solubility follow.
Test: Aqueous solubility of the compound at pH 6.5
Settings: aqueous solution
Write the answer as a number in µM, unit excluded.

> print(dat)
                                   compound  outcome.measure  recorded.number
1  O=C1CC2(CCN(CCc3ccc(F)c(F)c3)CC2)Oc2c1ccc1ccccc21       solubility               10

Looking up OC1CC2(CCN(CCC3CCCCC3)CC2)Oc2c1ccc1ccccc21 (stereo unspecified) , I found its solubility recorded as 20

Looking up c1ccc2c3c(ccc2c1)CCC1(CCNCC1)O3 , I found its solubility recorded as 20

* * *

Test: Octanol-water distribution coefficient, logD of the compound at pH 7.4 by HPLC-based analysis
Assay type: physicochemical
Examples of compounds with documented logD follow.
No unit in the answer, please; the number alone is enough.

# example entries with known answers
> print(dat)
                                   compound  outcome.measure  recorded.number
1           O=C1CC2(CCNCC2)Oc2c1ccc1ccccc21             logD             1.78
2       CCN1CCC2(CC1)CC(=O)c1ccc3ccccc3c1O2             logD             2.19
3           c1ccc2c3c(ccc2c1)CCC1(CCNCC1)O3             logD             2.33
4  CCN1CCC2(CC1)CC(O)c1ccc3ccccc3c1O2 (centres undefined)             logD             1.88
5  Fc1ccc(CCN2CCC3(CCc4ccc5ccccc5c4O3)CC2)cc1F             logD             4.51

Looking up c1ccc2c3c(ccc2c1)CCC1(CCN(CCC2CCCCC2)CC1)O3 , I found its logD recorded as 4.74

Looking up OC(CN1CCC2(CCc3ccc4ccccc4c3O2)CC1)c1ccc(F)c(F)c1 (centres undefined) , I found its logD recorded as 4
